- Test system: SK-MEL-28
- experiment: NCI tumour cell line growth inhibition, 48 h
Active and inactive are the calls of the source. No stated cut-off is given here; in the data, active = GI50 up to about 1.1 µM and inactive = higher.
Entries and their GI50

Exam item: So what does the record say about GI50 for `O=C1Nc2ccccc2/C1=N/NC(=S)Nc1ccccc1Cl` ?
Marked response: 12.2 µM (inactive)

Exam item: Another compound to check: O=c1cc(O)ccn1C1C=C(CO)C(O)C1O (stereo not given)
Marked response: > 625 µM (inactive)

Exam item: Another compound to check: COc1ccc(-c2c3c(n(C4OC(COC(C)=O)C(OC(C)=O)C(OC(C)=O)C4OC(C)=O)c(=S)c2C#N)CCC3)cc1 (stereo not given)
Marked response: > 100 µM (inactive)

Exam item: Another compound to check: `C=CCc1cc(-c2n[nH]c(=S)[nH]2)ccc1N/N=N/c1ccc(C(=O)O)cc1`
Marked response: > 100 µM (inactive)

Let us examine a further case.
Exam item: So what does the record say about GI50 for O=C(NCCSSCCNC(=O)/C(Cc1ccc(O)c(Br)c1)=N/O)/C(Cc1ccc(O)c(Br)c1)=N/O [PSAMMAPLIN A] ?
Marked response: 3.16 µM (inactive)

====

Entries and their GI50
- Tested on: HOP-18
- experiment: NCI tumour cell line growth inhibition, 48 h
Activity calls are given as the source filed them. Cut-off read from the data, not from the text of the source: active = GI50 up to about 1.1 µM and inactive = higher.

Exam item: So what does the record say about GI50 for `C[C@H]1CC[C@H](NC(=O)N(CCCl)N=O)CC1` ?
Marked response: 40.8 µM (inactive)

***
Exam item: So what does the record say about GI50 for COC(=O)C(=O)C(C(=O)C(=O)Nc1ccccc1C(N)=O)c1nc2ccc([N+](=O)[O-])cc2nc1O (configuration not stated) ?
Marked response: > 100 µM (inactive)

Exam item: Another compound to check: `O=C(N/N=C/c1ccccc1O)c1cccc([N+](=O)[O-])c1`
Marked response: 28.5 µM (inactive)

Exam item: Another compound to check: O=NN(CCCl)C(=O)NC1CCC(=O)NC1=O (configuration not stated)
Marked response: 432 µM (inactive)

Exam item: Another compound to check: `COc1cc(-c2nnc3n2NC=C(C(=O)O)S3)cc(OC)c1OC`
Marked response: > 70.1 µM (inactive)

Exam item: Another compound to check: `Cc1ccc(NC(=O)CC(=O)n2nc(-c3ccccc3)c(/N=N\c3ccccc3[N+](=O)[O-])c2-c2ccccc2)cc1`
Marked response: > 100 µM (inactive)

Exam item: Another compound to check: C1=CC2CCC1CN2CCC1CNc2ccccc21 (configuration not stated)
Marked response: > 100 µM (inactive)

Exam item: Another compound to check: `Cc1c(/C=N/NC(=O)c2ccccc2O)c(=O)n(-c2ccccc2)n1C`
Marked response: > 100 µM (inactive)

Exam item: Another compound to check: `C[C@H](OCc1ccccc1)C(=O)N1CCS(=O)(=O)N2CCC[C@H]2C1=O`
Marked response: > 100 µM (inactive)

Exam item: Another compound to check: CCC[S+]([O-])c1nc(COC(=O)NC)c(COC(=O)NC)n1C (configuration not stated)
Marked response: > 100 µM (inactive)

Exam item: Another compound to check: `CC[C@H](C)C(=O)O[C@H]1C[C@@H](C)C=C2C=C[C@H](C)[C@H](CC[C@@H]3C[C@@H](O)CC(=O)O3)[C@H]21`
Marked response: > 30 µM (inactive)

Exam item: Another compound to check: `Cc1ccccc1-n1c(C)nc(-c2ccccc2)cc1=O`
Marked response: > 100 µM (inactive)

Exam item: Another compound to check: `O=C1OC(c2ccccc2)=N/C1=C\c1cc(Cl)ccc1Cl`
Marked response: > 100 µM (inactive)

Exam item: Another compound to check: `Cc1cnc[nH]c1=O`
Marked response: > 100 µM (inactive)

Exam item: Another compound to check: CC1(O)CCC2(C#N)CCC1C2O (configuration not stated)
Marked response: > 100 µM (inactive)

Exam item: Another compound to check: `COc1ccc(-c2cc(=O)c3c(O)c(OC)c(O)c(OC)c3o2)cc1OC`
Marked response: 54.3 µM (inactive)

Exam item: Another compound to check: CC(=O)/C=C\C1CC2C=CC1C2 (configuration not stated)
Marked response: 96.6 µM (inactive)

Exam item: Another compound to check: `C=CCNC(=O)/C=C\C(=O)O`
Marked response: > 100 µM (inactive)

Exam item: Another compound to check: `O=C1[C@@H]2C3SC(c4ccccc43)[C@@H]2C(=O)N1c1ccccc1`
Marked response: > 90.4 µM (inactive)

====

- System: IGROV-1
- experiment: NCI tumour cell line growth inhibition, 48 h
Active and inactive are the calls of the source. No stated cut-off is given here; in the data, active = GI50 up to about 1.1 µM and inactive = higher.
Entries and their GI50

Below are worked cases with known answers.
Exam item: So what does the record say about GI50 for `N/C(S)=N/N=C/c1ccc(N)cn1` ?
Marked response: > 10 µM (inactive)

Exam item: Another molecule to check: `O=C1NC(c2ccccc2)(c2ccccc2)C(=O)N1CCCCCCN1C(=O)NC(c2ccccc2)(c2ccccc2)C1=O`
Marked response: 74 µM (inactive)

Exam item: Another molecule to check: CCOC(=O)CCC1(C(=O)OCC)CCCC1=O (stereo unspecified)
Marked response: > 100 µM (inactive)

Exam item: Another molecule to check: CC(=O)CC1(C)OC(N)=C(C#N)C1(C#N)C#N (stereo unspecified)
Marked response: > 100 µM (inactive)

Exam item: Another molecule to check: CCc1nc(N)nc(N)c1-c1ccc(Cl)cc1 [PYRIMETHAMINE]
Marked response: 9.86 µM (inactive)

***
Exam item: So what does the record say about GI50 for `CCOC(=O)c1sc2c(c1OC(=O)c1ccco1)c(=O)n(-c1ccccc1)c(=S)n2-c1ccccc1` ?
Marked response: 17.9 µM (inactive)

Exam item: Another molecule to check: `COc1ccc2nc3ccccc3c(NCCN(CCCl)CCCl)c2c1`
Marked response: 1.3 µM (inactive)

Exam item: Another molecule to check: `COc1ccc(-c2c(-c3ccccc3)c(C)nc3nc(SC)nc(SC)c23)cc1OC`
Marked response: 30 µM (inactive)

====

- Tested on: IGROV-1
- experiment: NCI tumour cell line growth inhibition, 48 h
The source made the active and inactive calls. Cut-off read from the data, not from the text of the source: active = GI50 up to about 1.1 µM and inactive = higher.
Please reply with one of these outcomes: Y for active, N for inactive

Exam item: Which outcome was entered for the molecule `O=S(=O)(N/C(=N\O)Nc1ccc(Cl)cc1)c1ccccc1` in this test?
Marked response: N

Exam item: Another molecule to check: `O=C1Cc2c([nH]c3ccc(Br)cc23)-c2ccccc2N1`
Marked response: N

Exam item: Another molecule to check: `O=C(Nc1nc2ccc([N+](=O)[O-])cc2[n+]([O-])n1)C(F)(F)F`
Marked response: N

Exam item: Another molecule to check: CC1CC(C)C2OC2(C)C[C@H](C)C(=O)NC(C)C(=O)N(C)[C@H](Cc2c(Br)[nH]c3ccccc23)C(=O)N[C@@H](c2ccc(O)cc2)CC(=O)O1 (stereo not given in full)
Marked response: Y

Exam item: Another molecule to check: `COc1ccc2cc(CNCCCCCCCCCCCCNCc3ccc4cc(OC)ccc4c3)ccc2c1`
Marked response: N

Okay, next one:
Exam item: Which outcome was entered for the molecule `Cc1c(/C=N/NC(=O)c2ccccc2O)c(=O)n(-c2ccccc2)n1C` in this test?
Marked response: N

====

- Tested on: SF-295
- experiment: NCI tumour cell line growth inhibition, 48 h
Activity calls are given as the source filed them. Cut-off read from the data, not from the text of the source: active = GI50 up to about 1.1 µM and inactive = higher.
Entries and their GI50

Exam item: So what does the record say about GI50 for CN1CCc2cc(N)cc3c2C1Cc1ccc2c(c1-3)OCO2 (stereo unspecified) ?
Marked response: 31.9 µM (inactive)

Exam item: Another molecule to check: `COc1nc(N)c(C#N)c(C#N)c1C#N`
Marked response: > 10 µM (inactive)

Exam item: Another molecule to check: CC1(O)CCn2c(=O)c3cc4ccccc4cc3c(=O)n2C1O (stereo unspecified)
Marked response: > 100 µM (inactive)

Exam item: Another molecule to check: COc1ccc(/C=C2\CCCC(C(NO)c3ccc(OC)cc3)C2=NO)cc1 (stereo unspecified)
Marked response: 55.6 µM (inactive)

Exam item: Another molecule to check: COC(=O)C1=COC2OC3CC1C2C(C)O3 (stereo unspecified)
Marked response: > 100 µM (inactive)

Let us examine a further case.
Exam item: So what does the record say about GI50 for CC(=O)C(/N=N\C1CCC(S(=O)(=O)NB2N=CS2)CC1)C(=O)Nc1ccccc1C (stereo unspecified) ?
Marked response: 17 µM (inactive)

====

- System: CAKI-1
- experiment: NCI tumour cell line growth inhibition, 48 h
The source made the active and inactive calls. Cut-off read from the data, not from the text of the source: active = GI50 up to about 1.1 µM and inactive = higher.
Please reply with one of these outcomes: yes (1) for active, no (0) for inactive

Exam item: Which outcome was entered for the compound `CC/C(CC(=O)CCC(=O)Nc1ccc(C)c(C)c1)=N\NC(=O)C(N)=O` in this test?
Marked response: no (0)

***
Exam item: Which outcome was entered for the compound `CS(=O)(=O)N(CCC#N)c1ccc(C=O)cc1` in this test?
Marked response: no (0)

Exam item: Another compound to check: `O=C(O)Cc1cc(=O)oc2cc(O)c(Cl)cc12`
Marked response: no (0)

Exam item: Another compound to check: `S=P(N1CC1)(N1CC1)N1CC1`
Marked response: no (0)

Exam item: Another compound to check: CCOC(=O)CCC1(C(=O)OCC)CCCC1=O (stereo unspecified)
Marked response: no (0)

Exam item: Another compound to check: `Cn1cnc(S[C@H]2[C@H]3C(=O)C=C4S[C@H]5C[C@]42C2=C(N5)C(=O)c4[nH]cc5c4C2=[N+]3CC5)c1C[C@H](N)C(=O)O`
Marked response: no (0)
